src = patent EP4707304A1

Molecular target: T1, VLP-hCLDN6 (human) (UniProt P56747)
T1 sequence: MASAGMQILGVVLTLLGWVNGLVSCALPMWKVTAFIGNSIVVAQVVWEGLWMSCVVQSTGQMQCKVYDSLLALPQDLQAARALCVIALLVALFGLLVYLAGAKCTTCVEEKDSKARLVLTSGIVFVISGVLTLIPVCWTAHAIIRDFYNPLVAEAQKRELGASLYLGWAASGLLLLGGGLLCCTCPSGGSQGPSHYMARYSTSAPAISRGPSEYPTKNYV
Test: ELISA, coated VLP-hCLDN6, 100 ul antibody sample, HRP-Protein A
OD450 reference

Some binders with known OD450 results, for comparison:
Binder: humanized antibody hAb-11 (antibody, V domains shown) VH: EVKLVESGGGLVKPGGSLRLSCAASGFTFNSYTMSWVRQTPAKRLEWVVTISSGGGRTYYPDSVKGRFTISRDNAKNTLYLQMSSLRAEDTAVYYCIRGDYRYDGFAYWGQGTLVTVSS VL: DIQMTQSPSSLSASVGDRVTITCRASENIDSYLAWYQQKPGKSPQLLVYASTLLQDGVPSRFSGSRSGTQFTLTISSLQPEDVARYYCQHYYSIPYTFGSGTKLEIK
Observed: 1.81

Binder: humanized antibody hAb-7 (antibody, V domains shown) VH: EVKLVESGGGLVKPGGSLRLSCAASGFTFNSYTMSWVRQAPGKRLEWVVTISSGGGRTYYPDSVKGRFTISRDNAKNTLYLQMSSLRAEDTAVYYCIRGDYRYDGFAYWGQGTLVTVSS VL: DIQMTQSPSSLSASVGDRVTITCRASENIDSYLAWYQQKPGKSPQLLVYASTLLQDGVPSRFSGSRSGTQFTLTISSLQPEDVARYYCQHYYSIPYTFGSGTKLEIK
Observed: 1.73

--- query ---
Query: Report OD450 for humanized antibody hAb-24 (antibody, V domains shown) VH: EVKLVESGGGLVKPGGSLRLSCAASGFTFNSYTMSWVRQTPAKRLEWVVTISSGGGRTYYPDSVKGRFTISRDNARNTLYLQMSSLRAEDTAVYYCIRGDYRYDGFAYWGQGTLVTVSS VL: DIQMTQSPSSLSASVGDRVTITCRASENIDSYLAWYQQKPGKSPQLLVYASTLLQDGVPSRFSGSRSGTQFTLTISSLQPEDFATYYCQHYYSIPYTFGSGTKLEIK please.
Reply: 1.94
